Assay: NCI Yeast Anticancer Drug Screen. Data for the cln2 rad14 strain (AID 165);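 also: 0% = growth equal to vehicle treated cultures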
Details: S. cerevisiae cln2 rad14 strain, at 50.0 µM, active compounds read high
Compounds without any hit were thinned out: in the full panel of roughly 79,000, 15% have a hit. Calls of active or inactive are those of the source. Rule as the data show it: active = growth inhibition above about 70%; inactive = the rest.
Reported endpoint: growth inhibition

Please review the following examples before continuing.
> print(dat)
                                    compound         test.value
 1  O=C1NCC2C3CCC(O3)C12 (centres undefined)  -10.2% (inactive)
 2  CC1CN=C(NCc2ccccc2)S1 (centres undefined)   21.9% (inactive)
 3     O=C1C=CC(=Nc2ccc(N(CCCl)CCCl)cc2)C=C1    3.5% (inactive)
 4  S=P(NCc1cccc(CNP(=S)(N2CC2)N2CC2)c1)(N1CC1)N1CC1    7.8% (inactive)
 5  COc1ccc(CC(N)c2ccc(OC)cc2)cc1 (centres undefined)  -24.8% (inactive)
 6                                   BrCCCBr   10.7% (inactive)
 7                             O=C(O)C(Cl)Cl  -10.1% (inactive)
 8  C=C[CH2][Sn]([CH2]C=C)([CH2]CCC)[CH2]CCC     99.2% (active)
 9  O=[N+]([O-])c1ccc2c(c1)[O][Sn]([I])([I])[O]2    6.7% (inactive)
10                  COc1cc2c(cc1O)CCN[C@H]2C   -4.1% (inactive)

Lookup result for CC(Cl)CN(CC(C)Cl)c1ccc2c(c1)Cc1cc([N+](=O)[O-])ccc1-2 (centres undefined) ; measured growth inhibition: 25.9% (inactive)

Lookup result for COc1ccc2c(c1)C1(C)CCN(C)CC(C1)C2O (centres undefined) ; measured growth inhibition: 22.9% (inactive)

Lookup result for c1ccc(OP(Oc2ccccc2)(c2ccccc2)(c2ccccc2)c2ccccc2)cc1 ; measured growth inhibition: -16.4% (inactive)

Lookup result for CNC(=O)Oc1cccc2c(OC3OC(CO)C(O)C(O)C3O)cccc12 (centres undefined) ; measured growth inhibition: -16.7% (inactive)

Lookup result for CC(C)c1cc2c(cc1O)C1(C)CCCC(C)(C)C1=CC2=O (centres undefined) ; measured growth inhibition: -17% (inactive)

Lookup result for O=NNc1cccc(NN=O)n1 ; measured growth inhibition: -2.75% (inactive)

Lookup result for Cc1cc(-c2ccccc2)cc(-c2ccccc2)[o+]1 ; measured growth inhibition: -23% (inactive)

Lookup result for c1ccc(-c2c[se]nn2)cc1 ; measured growth inhibition: -26.6% (inactive)

Lookup result for COC(=O)CCCCCCCCCCN(CCCl)CCCl ; measured growth inhibition: 26.2% (inactive)

Lookup result for O=C(CN1C(=O)c2ccccc2C1=O)OCCNCCCl ; measured growth inhibition: 95.9% (active)

Lookup result for CC(C)=CC1C(C(=O)OCc2cc3c(cc2Cl)OCO3)C1(C)C (centres undefined) ; measured growth inhibition: -48.9% (inactive)

###

Experiment: NCI Yeast Anticancer Drug Screen. Data for the bub3 strain (AID 167)
Details: S. cerevisiae bub3 mutant strain, at 50.0 µM
This is part of a sample that, as a whole, favours compounds with a hit. Of some 79,000 tested, about 15% had one in any assay. Active and inactive are the calls of the source. Rule as the data show it: active = growth inhibition above about 70%; inactive = the rest. *1 amine or outer side, *2 acyl side, *3 side chain or, on linkers, in order; H or OH if unused. Where a SMILES comes first, the peptide text is derived from it. Bridges are numbered along the chain shown (N, C = ends). Roman numbers before positions name the chains, in order. [ ]: non-standard residue; d: D form. Actinocin(1to9) = Cc1c2oc3c(C)ccc(C(=O)[*:2])c3nc-2c(C(=O)[*:1])c(N)c1=O; NMeV = CN[CH](C(=O)O)C(C)C; Sar = CNCC(=O)O
// one of active, inactive, no free text

Known results for compounds:
Compound	Group
CC(=O)C1(O)CCC2(O)C3(O)CC=C4CC(O)CCC4(C)C3CC(OC(=O)c3ccc(O)cc3)C12C (stereo unspecified)	inactive
C[Si](C)(C)CS(=O)[O-].[C-]#[O+].[C-]#[O+].[Fe+6].[c-]1[c-][c-][cH-][c-]1	inactive
CCC(C)C1NC(=O)C(NC(=O)c2c3nc4c(C(=O)NC5C(=O)NC(C(C)C)C(=O)N6CCCC6C(=O)N(C)CC(=O)N(C)C(C(C)C)C(=O)OC5C)ccc(C)c4oc-3c(C)c(=O)c2N)C(C)OC(=O)C(C(C)C)N(C)C(=O)CN(C)C(=O)C2CCCN2C1=O (stereo unspecified) (I: TIP[Sar][NMeV] / II: TVP[Sar][NMeV]; ester I:1-I:C, II:1-II:C; linker I:N-II:N via Actinocin(1to9); configuration not given here)	active
[C-]#[N+]CS(=O)(=O)c1ccc(C)cc1	inactive
CC[N+](CC)(CC)CC.N#CC(C#N)=C([SH2+])[SH2+].N#CC(C#N)=C([SH2+])[SH2+].[Co+2]	active
O=P(OCCCl)(OCCCl)OCCCl	inactive
[N-]=[N+]=CC(=O)CCC(=O)C=[N+]=[N-]	inactive
CN1CN(c2ccccc2)C2(CCN(CCC3Oc4ccccc4O3)CC2)C1=O	inactive

State the result this test recorded for Cc1cccc(Cl)c1OP(=O)(Oc1c(C)cccc1Cl)Oc1c(C)cccc1Cl .
inactive

State the result this test recorded for O=c1oc2cc(O)ccc2c(O)c1C(c1ccc2ccccc2c1)c1c(O)c2ccc(O)cc2oc1=O .
inactive

State the result this test recorded for CC(=O)[O][Sn]([CH2]C1CCCC1)([CH2]C1CCCC1)[CH2]C1CCCC1 .
active

State the result this test recorded for O=C([CH-]C(=O)c1ccccc1)c1ccccc1.O=C([CH-]C(=O)c1ccccc1)c1ccccc1.[OH-].[OH-].[Ti+4] .
inactive

State the result this test recorded for O=C1NC(=S)NC(=O)C1=Cc1ccco1 .
inactive

State the result this test recorded for N#CS.[Co+3].[NH-]CC[NH-].[NH-]CC[NH-].[NH-]CC[SH2+] .
inactive

State the result this test recorded for CCN1CCOC(CC)(c2cc(Cl)cc(Cl)c2Cl)C1 (stereo unspecified) .
inactive

State the result this test recorded for CC(C)CCC1C(=O)NC(=O)NC1=O .
inactive

State the result this test recorded for NC(Cc1cccc(NP(=S)(NCCO)N2CC2)c1)C(=O)O (stereo unspecified) .
inactive

State the result this test recorded for Oc1ccccc1/C=N/Sc1ccccc1.Oc1ccccc1/C=N/Sc1ccccc1.[Ni+2] .
inactive

State the result this test recorded for CCOC(=O)/C=C1/C=C(C)CC(C)(C)C1 (tested in a mixture with another compound) .
inactive

State the result this test recorded for CC(=O)CCC(=O)O .
inactive

State the result this test recorded for COC(=O)CCP(CCC(=O)OC)c1ccccc1 .
inactive

State the result this test recorded for CCOC(=S)S.[Ag] .
inactive

State the result this test recorded for CCN1CC2CCC1C2 (stereo unspecified) .
inactive

State the result this test recorded for O=[N+]([O-])c1ccc(/C=C/c2ccc(S(=O)(=O)F)cc2Cl)c(Cl)c1 .
inactive

State the result this test recorded for CCCCCCNP(=O)(OCC)OCC .
inactive

###

Assay: NCI Yeast Anticancer Drug Screen. Data for the rad50 strain (AID 155);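 also: 0% = growth of vehicle-only cultures of the same strain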
Conditions: S. cerevisiae rad50 strain growth inhibition; at 50.0 µM; active compounds read high
The panel holds about 79,000 compounds, 15% with a hit somewhere; the sample as a whole holds those more often. Where a SMILES comes first, the peptide text is derived from it. Bridges are numbered along the chain shown (N, C = ends). Roman numbers before positions name the chains, in order. [ ]: non-standard residue; d: D form. The star is where a group is joined. Quinoxaline2carbonyl = O=C(c1cnc2ccccc2n1)*; NMeV = CN[CH](C(=O)O)C(C)C; NMeC = CN[CH](CS)C(=O)O
Below, each entry is listed with its recorded growth inhibition.
Response body: numeric value in %, unit text excluded.

Molecule	Quantity unit	Test value
C[n+]1ccc2ccccc2c1-c1c2ccccc2cc[n+]1C	%	27.4
O[As](O)O.S=C(S)c1ccccc1S	%	7.55
CC1NC(=O)C(NC(=O)c2cnc3ccccc3n2)COC(=O)C(C(C)C)N(C)C(=O)C2CSSCC(C(=O)N(C)C(C(C)C)C(=O)OCC(NC(=O)c3cnc4ccccc4n3)C(=O)NC(C)C(=O)N2C)N(C)C1=O (centres undefined) (I: Quinoxaline2carbonyl-SA[NMeC][NMeV] / II: Quinoxaline2carbonyl-SA[NMeC][NMeV]; ester I:1-II:C, I:C-II:1; disulfide I:3-II:3; configuration not given here)	%	87.3
Nc1ccc2ncccc2c1 (tested in a mixture with another compound)	%	39.2
COc1ccccc1CCN	%	-23.6

Lookup result for CC(=O)OC1CCC2(C)C(CCC3C2CCC2(C)C3CC(CC(=O)O)C2OC(C)=O)C1 (centres undefined) ; measured growth inhibition: 16.5

Lookup result for CS(=N)(=O)CCC(N)C(=O)O (centres undefined) (tested in a mixture with another compound) ; measured growth inhibition: 4.7

Lookup result for O=C(CC(=O)C(F)(F)F)c1cccs1.O=C(CC(=O)C(F)(F)F)c1cccs1.O=C(CC(=O)C(F)(F)F)c1cccs1.[Tb] ; measured growth inhibition: -5

Lookup result for [Cu+2].[NH-]c1ccccc1C(=O)O.[NH-]c1ccccc1C(=O)O ; measured growth inhibition: -34.8

Lookup result for CC1(C)N=C(N)N=C(N)N1c1ccc(CCc2ccc(S(=O)(=O)F)cc2Cl)c(Cl)c1 ; measured growth inhibition: 99.4

Lookup result for CC1N=C(c2ccccc2)C2(c3ccccc3)C(C)N12 (centres undefined) ; measured growth inhibition: -7

Lookup result for CCOc1cc(OCC)c(OCC)cc1/C=C/[N+](=O)[O-] ; measured growth inhibition: 90

Lookup result for CCCCCCCCCCCCN(C)C ; measured growth inhibition: 45.4

Lookup result for CCCCN1C(=O)CC(=O)N(c2ccccc2)C1=O ; measured growth inhibition: -8.55

Lookup result for COc1ccc(CN2CCCN(Cc3ccc(OC)cc3)C2c2ccc(N(CCCl)CCCl)cc2)cc1 ; measured growth inhibition: 30.3
